# tgt: P-gp (Homo sapiens, UniProt P08183)
# Construct: expressed in transfected cells; host or cells: MDCKII-MDR1 cells
# Sequence (P08183 whole entry): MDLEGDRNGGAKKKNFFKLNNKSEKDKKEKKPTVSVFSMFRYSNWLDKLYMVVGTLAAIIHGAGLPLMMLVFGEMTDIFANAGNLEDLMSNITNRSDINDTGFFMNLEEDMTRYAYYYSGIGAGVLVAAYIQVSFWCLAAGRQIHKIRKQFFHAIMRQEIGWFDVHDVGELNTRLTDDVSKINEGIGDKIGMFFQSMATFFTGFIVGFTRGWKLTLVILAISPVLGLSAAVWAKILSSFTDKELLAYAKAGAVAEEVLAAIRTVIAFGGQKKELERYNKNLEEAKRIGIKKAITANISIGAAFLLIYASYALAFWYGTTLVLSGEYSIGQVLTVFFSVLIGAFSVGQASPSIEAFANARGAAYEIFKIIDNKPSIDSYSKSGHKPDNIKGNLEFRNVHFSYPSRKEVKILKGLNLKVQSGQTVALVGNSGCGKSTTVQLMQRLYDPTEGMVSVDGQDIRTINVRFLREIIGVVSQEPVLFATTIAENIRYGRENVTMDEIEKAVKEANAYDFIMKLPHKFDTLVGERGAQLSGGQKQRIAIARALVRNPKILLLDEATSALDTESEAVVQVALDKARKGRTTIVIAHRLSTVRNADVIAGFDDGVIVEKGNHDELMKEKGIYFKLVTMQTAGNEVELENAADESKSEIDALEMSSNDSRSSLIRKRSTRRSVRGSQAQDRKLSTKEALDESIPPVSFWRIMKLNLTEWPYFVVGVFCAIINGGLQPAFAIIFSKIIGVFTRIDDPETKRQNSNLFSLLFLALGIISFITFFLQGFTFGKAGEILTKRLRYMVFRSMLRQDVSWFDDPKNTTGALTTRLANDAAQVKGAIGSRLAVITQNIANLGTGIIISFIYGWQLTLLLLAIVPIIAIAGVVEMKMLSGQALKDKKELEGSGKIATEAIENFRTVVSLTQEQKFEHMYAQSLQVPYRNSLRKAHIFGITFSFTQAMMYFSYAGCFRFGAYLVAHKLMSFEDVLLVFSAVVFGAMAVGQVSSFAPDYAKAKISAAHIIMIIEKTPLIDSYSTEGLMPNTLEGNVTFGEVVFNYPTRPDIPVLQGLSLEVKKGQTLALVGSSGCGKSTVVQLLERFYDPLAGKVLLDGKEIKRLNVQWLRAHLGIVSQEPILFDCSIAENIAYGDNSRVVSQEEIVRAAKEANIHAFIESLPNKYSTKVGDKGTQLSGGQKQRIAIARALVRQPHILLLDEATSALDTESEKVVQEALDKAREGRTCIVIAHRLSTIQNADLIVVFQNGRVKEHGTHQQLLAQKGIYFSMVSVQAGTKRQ
# test name: P-gp substrate evaluation, MDCKII-MDR1 penetration test with or without Verapamil
# Format: in vitro ADME
# details: dog, MDCK-MDR1, Verapamil 0 μM; read-out: Recovery (%) AP-BL
# Procedure: The conditions of the incubator were set as 37° C., 5% CO2, and 95% of the relative humidity. After that, the MDCKII-MDR1 cells can be used for the penetration test. (1) MDCKII-MDR1 transwell culture plate was taken out from the incubator. (6) The upper and lower transportations were pooled and then incubated at 37° C. for 2 h. […] Efflux Ratio was calculated by the following formula: […] Recovery was calculated by the following formula: […]
recorded endpoint: recovery at 2 h

- compound: "O=[N+]([O-])c1ccc(C(OP(=O)(N2CC2)N2CC2)C(F)(F)F)cc1Oc1ccc(-c2ccc(F)cc2)c(F)c1 (racemic)"
  observed measurement: "5.03%"
- compound: "C[C@@H](OP(=O)(N1CC1)N1CC1)c1ccc([N+](=O)[O-])c(Oc2cccc(C(=O)N(C)C)c2)c1"
  observed measurement: "79.1%"

* * *

# test name: in vitro
# details: cynomolgus (printed as 'machins'), monkey, hepatocyte cytosol, Metabolic parameter t1/2, monkey; 2 mM NADPH, no AST-3021 (normal reaction / positive control group); 5 μM
recorded endpoint: half-life at 5 µM (h)

- compound: "O=[N+]([O-])c1ccc(C(OP(=O)(N2CC2)N2CC2)C(F)(F)F)cc1Oc1ccc(-c2ccc(F)cc2)c(F)c1 (racemic)"
  unit of measurement: "h"
  observed measurement: 2.53

* * *

# test name: Blood-brain barrier assay of Compound A (plasma and brain concentration, PK)
# Type: in vivo, CD-1 mice
# details: CD-1, mouse, brain/plasma, iv, 1 mg/kg, IV 1 mg/kg; 0.25 h; mean of 3 animals; read-out: Ratio (Brain/Plasma), Mean
# Experimental: Three CD-1 mice were administered 1 mg/kg of the test Compound A intravenously at each time point. Blood and brain tissue were taken at 5 min, 15 min, 1 h, 2 h, 4 h and 8 h after administration. […]

- molecule: "O=[N+]([O-])c1ccc(C(OP(=O)(N2CC2)N2CC2)C(F)(F)F)cc1Oc1ccc(-c2ccc(F)cc2)c(F)c1 (racemic) [Compound A]"
  Kp at 0.25 h: 1.15

* * *

# test name: Blood-brain barrier assay of Compound A (plasma and brain concentration, PK)
# Type: in vivo, CD-1 mice
# details: CD-1, mouse, brain/plasma, iv, 1 mg/kg, 1 mg/kg intravenously; Mean; read-out: AUCInf Ratio (Brain/Plasma)
recorded endpoint: Kp

- molecule: "O=[N+]([O-])c1ccc(C(OP(=O)(N2CC2)N2CC2)C(F)(F)F)cc1Oc1ccc(-c2ccc(F)cc2)c(F)c1 (racemic) [Compound A]"
  observed measurement: 0.8

* * *

# test name: Blood-brain barrier assay of Compound A (plasma and brain concentration, PK)
# Assay type: in vivo, CD-1 mice
# details: CD-1, mouse, plasma, iv, 1 mg/kg, IV 1 mg/kg; 8 h; individual animals; read-out: Plasma concentration

- molecule: "O=[N+]([O-])c1ccc(C(OP(=O)(N2CC2)N2CC2)C(F)(F)F)cc1Oc1ccc(-c2ccc(F)cc2)c(F)c1 (racemic)"
  unit of measurement: "ng/mL"
  concentration at 8 h: 48.8

* * *

# test name: Blood-brain barrier assay of Compound A (plasma and brain concentration, PK)
# Assay type: in vivo, CD-1 mice
# details: CD-1, mouse, brain, iv, 1 mg/kg, IV 1 mg/kg; 2 h; individual animals; read-out: Brain concentration
recorded endpoint: concentration at 2 h (ng/g)

- compound: "O=[N+]([O-])c1ccc(C(OP(=O)(N2CC2)N2CC2)C(F)(F)F)cc1Oc1ccc(-c2ccc(F)cc2)c(F)c1 (racemic)"
  unit of measurement: "ng/g"
  observed measurement: 107

* * *

# test name: Blood-brain barrier assay of Compound A (plasma and brain concentration, PK)
# Format: in vivo, CD-1 mice
# details: CD-1, mouse, iv; brain tissues; 1 mg/kg intravenously; Mean; read-out: T½ (converted)

- compound: "O=[N+]([O-])c1ccc(C(OP(=O)(N2CC2)N2CC2)C(F)(F)F)cc1Oc1ccc(-c2ccc(F)cc2)c(F)c1 (racemic)"
  half-life: "2.8 h"

* * *

# test name: in vitro
# details: human, hepatocyte cytosol, half-life, with NADPH and AST-3021

- compound: "O=[N+]([O-])c1ccc(C(OP(=O)(N2CC2)N2CC2)C(F)(F)F)cc1Oc1ccc(-c2ccc(F)cc2)c(F)c1 (racemic)"
  unit of measurement: "h"
  half-life at 5 µM: 1.08

* * *

# test name: in vitro
# details: human, hepatocyte cytosol, with AST-3021 (AKR1C3 inhibitor), 3 µM, Metabolic parameter t1/2, human; 2 mM NADPH + 3 μM AST-3021 (inhibition reaction group); 5 μM

- compound: "O=[N+]([O-])c1ccc(C(OP(=O)(N2CC2)N2CC2)C(F)(F)F)cc1Oc1ccc(-c2ccc(F)cc2)c(F)c1 (racemic)"
  unit of measurement: "h"
  half-life at 5 µM: 1.08

* * *

# test name: Blood-brain barrier assay of Compound A (plasma and brain concentration, PK)
# Format: in vivo, CD-1 mice
# details: CD-1, mouse, iv; plasma; 1 mg/kg intravenously; Mean

- molecule: "O=[N+]([O-])c1ccc(C(OP(=O)(N2CC2)N2CC2)C(F)(F)F)cc1Oc1ccc(-c2ccc(F)cc2)c(F)c1 (racemic) [Compound A]"
  unit of measurement: "ng·h/mL"
  AUC(0-inf): 1200

* * *

Listed below: recovery at 2 h values for each entry.
# tgt: P-gp (Homo sapiens, UniProt P08183)
# Construct: expressed in transfected cells; host or cells: MDCKII-MDR1 cells
# test name: P-gp substrate evaluation, MDCKII-MDR1 penetration test with or without Verapamil
# Type: in vitro ADME
# details: dog, MDCK-MDR1, with Verapamil 100 μM, Verapamil 100 μM; read-out: Recovery (%) BL-AP
recorded endpoint: recovery at 2 h (%)

- compound: "O=[N+]([O-])c1ccc(C(OP(=O)(N2CC2)N2CC2)C(F)(F)F)cc1Oc1ccc(-c2ccc(F)cc2)c(F)c1 (racemic)"
  tgt: "P-gp (Homo sapiens, UniProt P08183)"
  recorded endpoint: "recovery at 2 h"
  observed measurement: 12.6
- compound: "C[C@@H](OP(=O)(N1CC1)N1CC1)c1ccc([N+](=O)[O-])c(Oc2cccc(C(=O)N(C)C)c2)c1"
  tgt: "P-gp (Homo sapiens, UniProt P08183)"
  recorded endpoint: "recovery at 2 h"
  observed measurement: 96.3

* * *

# test name: Blood-brain barrier assay of Compound A (plasma and brain concentration, PK)
# Assay type: in vivo, CD-1 mice
# details: CD-1, mouse, brain, iv, 1 mg/kg, IV 1 mg/kg; 0.25 h; individual animals; read-out: Brain concentration

- molecule: "O=[N+]([O-])c1ccc(C(OP(=O)(N2CC2)N2CC2)C(F)(F)F)cc1Oc1ccc(-c2ccc(F)cc2)c(F)c1 (racemic)"
  concentration at 0.25 h: "419 ng/g"

* * *

# tgt: P-gp (Homo sapiens)
# Construct: expressed in transfected cells; host or cells: MDCKII-MDR1 cells
# test name: P-gp substrate evaluation, MDCKII-MDR1 penetration test with or without Verapamil
# Assay type: in vitro ADME
# details: dog, MDCK-MDR1, with Verapamil 100 μM, Verapamil 100 μM; read-out: Recovery (%) AP-BL

- molecule: "O=[N+]([O-])c1ccc(C(OP(=O)(N2CC2)N2CC2)C(F)(F)F)cc1Oc1ccc(-c2ccc(F)cc2)c(F)c1 (racemic) [Compound A]"
  tgt: "P-gp (Homo sapiens)"
  recovery at 2 h (%): 5.7
- molecule: "C[C@@H](OP(=O)(N1CC1)N1CC1)c1ccc([N+](=O)[O-])c(Oc2cccc(C(=O)N(C)C)c2)c1 [AST-3424]"
  tgt: "P-gp (Homo sapiens)"
  recovery at 2 h (%): 92.6

* * *

# test name: Blood-brain barrier assay of Compound A (plasma and brain concentration, PK)
# Format: in vivo, CD-1 mice
# details: CD-1, mouse, brain/plasma, iv, 1 mg/kg, IV 1 mg/kg; 4 h; mean of 3 animals; read-out: Ratio (Brain/Plasma), Mean

- molecule: "O=[N+]([O-])c1ccc(C(OP(=O)(N2CC2)N2CC2)C(F)(F)F)cc1Oc1ccc(-c2ccc(F)cc2)c(F)c1 (racemic)"
  Kp at 4 h: 0.78

* * *

# test name: Blood-brain barrier assay of Compound A (plasma and brain concentration, PK)
# Type: in vivo, CD-1 mice
# details: CD-1, mouse, brain/plasma, iv, 1 mg/kg, IV 1 mg/kg; 8 h; mean of 3 animals; read-out: Ratio (Brain/Plasma), Mean

- molecule: "O=[N+]([O-])c1ccc(C(OP(=O)(N2CC2)N2CC2)C(F)(F)F)cc1Oc1ccc(-c2ccc(F)cc2)c(F)c1 (racemic)"
  Kp at 8 h: 0.52
